viability, T/C by entry:
test system: 266295-075-R-J1-PDC spheroid viability; test: Anticancer human tumor 266295-075-R-J1-PDC patient-derived head and neck squamous carcinoma cell line growth inhibition [POLQ]; settings: second compound 0.0316 µM; first compound 0.316 µM; hits give low values; spheroids with HUVEC and MSC
MEASURED QUANTITY: viability, T/C (%)

* CC(C)n1c(=O)n(C)c2cnc3cc(F)c(-c4ccc(OCCCN5CCCCC5)nc4)cc3c21 + COC1C(OC(N)=O)C(O)C(Oc2ccc3c(O)c(NC(=O)c4ccc(O)c(CC=C(C)C)c4)c(=O)oc3c2C)OC1(C)C | 97.2
* CCc1c2c(nc3ccc(O)cc13)-c1cc3c(c(=O)n1C2)COC(=O)[C@]3(O)CC + Cc1cccc(N(C)C(=O)C2C(O)CCN2c2nc(C)cc(C(F)(F)F)c2C#N)c1 | 113
* COc1cc2cc(C(=O)CCC(=O)O)sc2cc1OC + Cc1cccc(N(C)C(=O)C2C(O)CCN2c2nc(C)cc(C(F)(F)F)c2C#N)c1 | 90
* C=CC(=O)N1CCN(c2nc(=O)n(-c3c(C)ccnc3C(C)C)c3nc(-c4c(O)cccc4F)c(F)cc23)C(C)C1 (centres undefined) + Nc1ccc(C#CCN(C(=O)Cc2ncc(C(F)(F)F)cc2C(F)(F)F)c2ccc(F)cc2)nn1 | 101

###

test system: 266295-075-R-J1-PDC spheroid viability; test: Anticancer human tumor 266295-075-R-J1-PDC cell line growth inhibition [POLQ]; settings: second compound 10 µM; first compound 3.16 µM; hits give low values; spheroids with HUVEC and MSC;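 note: spheroids exposed to compounds for seven days before readout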
Mark yes (1) for viability, T/C under 90%, no (0) if at or over.

- COc1cccc2c1C(=O)c1c(O)c3c(c(O)c1C2=O)CC(O)(C(=O)CO)CC3OC1CC(N)C(O)C(C)O1 (stereo unspecified) + COC1C(OC(N)=O)C(O)C(Oc2ccc3c(O)c(NC(=O)c4ccc(O)c(CC=C(C)C)c4)c(=O)oc3c2C)OC1(C)C: yes (1)
- C#Cc1c(F)ccc2cc(O)cc(-c3ncc4c(N5CC6CCC(C5)N6)nc(OCC56CCCN5CC(F)C6)nc4c3F)c12 (stereo unspecified) + COC1C(OC(N)=O)C(O)C(Oc2ccc3c(O)c(NC(=O)c4ccc(O)c(CC=C(C)C)c4)c(=O)oc3c2C)OC1(C)C: yes (1)
- CC1COCCN1c1cc(C2(S(C)(=N)=O)CC2)nc(-c2ccnc3[nH]ccc23)n1 (stereo unspecified) + COC1C(OC(N)=O)C(O)C(Oc2ccc3c(O)c(NC(=O)c4ccc(O)c(CC=C(C)C)c4)c(=O)oc3c2C)OC1(C)C: yes (1)
- COc1cc(C2c3cc4c(cc3C(OC3OC5COC(C)OC5C(O)C3O)C3COC(=O)C23)OCO4)cc(OC)c1O (stereo unspecified) + Nc1ccc(C#CCN(C(=O)Cc2ncc(C(F)(F)F)cc2C(F)(F)F)c2ccc(F)cc2)nn1: no (0)
- COc1cc2cc(C(=O)CCC(=O)O)sc2cc1OC + COC1C(OC(N)=O)C(O)C(Oc2ccc3c(O)c(NC(=O)c4ccc(O)c(CC=C(C)C)c4)c(=O)oc3c2C)OC1(C)C: no (0)
- CCc1cc2c(N3CCc4c(cc(Cn5ccnc5)cc4-c4cn(C)nc4C(F)(F)F)C3=O)cc(C)nc2c(OC)n1 + Cc1cccc(N(C)C(=O)C2C(O)CCN2c2nc(C)cc(C(F)(F)F)c2C#N)c1: no (0)
- CCCS(=O)(=O)Nc1ccc(F)c(C(=O)c2c[nH]c3ncc(-c4ccc(Cl)cc4)cc23)c1F + Nc1ccc(C#CCN(C(=O)Cc2ncc(C(F)(F)F)cc2C(F)(F)F)c2ccc(F)cc2)nn1: no (0)
- CC1COCCN1c1cc(-c2ccnn2C)c2ccnc(-c3ccn[nH]3)c2n1 (stereo unspecified) + Nc1ccc(C#CCN(C(=O)Cc2ncc(C(F)(F)F)cc2C(F)(F)F)c2ccc(F)cc2)nn1: yes (1)
- CC1COCCN1c1cc(C2(S(C)(=N)=O)CC2)nc(-c2ccnc3[nH]ccc23)n1 (stereo unspecified) + Nc1ccc(C#CCN(C(=O)Cc2ncc(C(F)(F)F)cc2C(F)(F)F)c2ccc(F)cc2)nn1: yes (1)
- O=C(c1cc(Cc2n[nH]c(=O)c3ccccc23)ccc1F)N1CCN(C(=O)C2CC2)CC1 + Cc1cccc(N(C)C(=O)C2C(O)CCN2c2nc(C)cc(C(F)(F)F)c2C#N)c1: no (0)
- COc1ccc([C@@H](O)c2cc(-c3ncnc4cc(N5CCOCC5)ccc34)c(F)cc2Cl)nn1 + Cc1cccc(N(C)C(=O)C2C(O)CCN2c2nc(C)cc(C(F)(F)F)c2C#N)c1: yes (1)
- C=CC(=O)N1CCN(c2nc(=O)n(-c3c(C)ccnc3C(C)C)c3nc(-c4c(O)cccc4F)c(F)cc23)C(C)C1 (stereo unspecified) + Cc1cccc(N(C)C(=O)C2C(O)CCN2c2nc(C)cc(C(F)(F)F)c2C#N)c1: no (0)
- COc1ccc([C@@H](O)c2cc(-c3ncnc4cc(N5CCOCC5)ccc34)c(F)cc2Cl)nn1 + Nc1ccc(C#CCN(C(=O)Cc2ncc(C(F)(F)F)cc2C(F)(F)F)c2ccc(F)cc2)nn1: yes (1)
- CCCS(=O)(=O)Nc1ccc(F)c(C(=O)c2c[nH]c3ncc(-c4ccc(Cl)cc4)cc23)c1F + Cc1cccc(N(C)C(=O)C2C(O)CCN2c2nc(C)cc(C(F)(F)F)c2C#N)c1: no (0)
- COc1ccc([C@@H](O)c2cc(-c3ncnc4cc(N5CCOCC5)ccc34)c(F)cc2Cl)nn1 + COC1C(OC(N)=O)C(O)C(Oc2ccc3c(O)c(NC(=O)c4ccc(O)c(CC=C(C)C)c4)c(=O)oc3c2C)OC1(C)C: yes (1)
- CC1COCCN1c1cc(-c2ccnn2C)c2ccnc(-c3ccn[nH]3)c2n1 (stereo unspecified) + Cc1cccc(N(C)C(=O)C2C(O)CCN2c2nc(C)cc(C(F)(F)F)c2C#N)c1: yes (1)
- CNCc1ccc(-c2[nH]c3cc(F)cc4c3c2CCNC4=O)cc1 + Nc1ccc(C#CCN(C(=O)Cc2ncc(C(F)(F)F)cc2C(F)(F)F)c2ccc(F)cc2)nn1: yes (1)
- Nc1ccn(C2OC(CO)C(O)C2(F)F)c(=O)n1 (stereo unspecified) + Nc1ccc(C#CCN(C(=O)Cc2ncc(C(F)(F)F)cc2C(F)(F)F)c2ccc(F)cc2)nn1: yes (1)
- C#Cc1c(F)ccc2cc(O)cc(-c3ncc4c(N5CC6CCC(C5)N6)nc(OCC56CCCN5CC(F)C6)nc4c3F)c12 (stereo unspecified) + Nc1ccc(C#CCN(C(=O)Cc2ncc(C(F)(F)F)cc2C(F)(F)F)c2ccc(F)cc2)nn1: yes (1)
- CC(C)n1c(=O)n(C)c2cnc3cc(F)c(-c4ccc(OCCCN5CCCCC5)nc4)cc3c21 + Cc1cccc(N(C)C(=O)C2C(O)CCN2c2nc(C)cc(C(F)(F)F)c2C#N)c1: yes (1)

###

tested on: 266295-075-R-J1-PDC spheroid viability; test: Anticancer human tumor 266295-075-R-J1-PDC cell line growth inhibition [POLQ]; conditions: second compound 0.0316 µM; first compound 10 µM; hits give low values; spheroids with HUVEC and MSC;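 note: spheroids exposed to compounds for seven days before readout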
MEASURED QUANTITY: viability, T/C (%)

* CC1COCCN1c1cc(C2(O)CC3CCC(C2)O3)c2cnn(-c3ccn[nH]3)c2n1 (stereo not given) + COC1C(OC(N)=O)C(O)C(Oc2ccc3c(O)c(NC(=O)c4ccc(O)c(CC=C(C)C)c4)c(=O)oc3c2C)OC1(C)C | 29.8
* CNCc1ccc(-c2[nH]c3cc(F)cc4c3c2CCNC4=O)cc1 + Nc1ccc(C#CCN(C(=O)Cc2ncc(C(F)(F)F)cc2C(F)(F)F)c2ccc(F)cc2)nn1 | 113
* CC1COCCN1c1cc(-c2ccnn2C)c2ccnc(-c3ccn[nH]3)c2n1 (stereo not given) + Cc1cccc(N(C)C(=O)C2C(O)CCN2c2nc(C)cc(C(F)(F)F)c2C#N)c1 | 40
* O=C(c1cc(Cc2n[nH]c(=O)c3ccccc23)ccc1F)N1CCN(C(=O)C2CC2)CC1 + Cc1cccc(N(C)C(=O)C2C(O)CCN2c2nc(C)cc(C(F)(F)F)c2C#N)c1 | 104
* CCc1cc2c(N3CCc4c(cc(Cn5ccnc5)cc4-c4cn(C)nc4C(F)(F)F)C3=O)ccnc2c(OC)n1 + Cc1cccc(N(C)C(=O)C2C(O)CCN2c2nc(C)cc(C(F)(F)F)c2C#N)c1 | 126

###

System: 266295-075-R-J1-PDC spheroid viability
Test: Anticancer human tumor 266295-075-R-J1-PDC cell line growth inhibition [POLQ];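 note: spheroids exposed to compounds for seven days before readout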
Settings: second compound 0.1 µM; first compound 0.316 µM; hits give low values; spheroids with HUVEC and MSC
Protocol: Multicellular complex tumor spheroid response to Polymerase (POL) inhibitors (novobiocin, ART-558, RP6685) in combination with a variety of drugs and investigational agents in selected tumor cell lines The POL inhibitors (novobiocin, ART-558, and RP6685) were evaluated both individually and in combination with standard of care and investigational anticancer small molecules within a complex spheroid model of solid tumors. . […]
Mark yes for viability, T/C under 90%, no if at or over.

• CC1COCCN1c1cc(-c2ccnn2C)c2ccnc(-c3ccn[nH]3)c2n1 (stereo unspecified) + COC1C(OC(N)=O)C(O)C(Oc2ccc3c(O)c(NC(=O)c4ccc(O)c(CC=C(C)C)c4)c(=O)oc3c2C)OC1(C)C = yes
• COc1cc(C2c3cc4c(cc3C(OC3OC5COC(C)OC5C(O)C3O)C3COC(=O)C23)OCO4)cc(OC)c1O (stereo unspecified) + Nc1ccc(C#CCN(C(=O)Cc2ncc(C(F)(F)F)cc2C(F)(F)F)c2ccc(F)cc2)nn1 = no
• COc1ccc([C@@H](O)c2cc(-c3ncnc4cc(N5CCOCC5)ccc34)c(F)cc2Cl)nn1 + COC1C(OC(N)=O)C(O)C(Oc2ccc3c(O)c(NC(=O)c4ccc(O)c(CC=C(C)C)c4)c(=O)oc3c2C)OC1(C)C = yes
• CC1COCCN1c1cc(C2(O)CC3CCC(C2)O3)c2cnn(-c3ccn[nH]3)c2n1 (stereo unspecified) + COC1C(OC(N)=O)C(O)C(Oc2ccc3c(O)c(NC(=O)c4ccc(O)c(CC=C(C)C)c4)c(=O)oc3c2C)OC1(C)C = yes
• CC1COCCN1c1cc(C2(S(C)(=N)=O)CC2)nc(-c2ccnc3[nH]ccc23)n1 (stereo unspecified) + Cc1cccc(N(C)C(=O)C2C(O)CCN2c2nc(C)cc(C(F)(F)F)c2C#N)c1 = yes
• COc1cccc2c1C(=O)c1c(O)c3c(c(O)c1C2=O)CC(O)(C(=O)CO)CC3OC1CC(N)C(O)C(C)O1 (stereo unspecified) + COC1C(OC(N)=O)C(O)C(Oc2ccc3c(O)c(NC(=O)c4ccc(O)c(CC=C(C)C)c4)c(=O)oc3c2C)OC1(C)C = yes
• COc1cccc(OCCCN)c1-c1cc(Nc2cnc(C#N)cn2)n[nH]1 + COC1C(OC(N)=O)C(O)C(Oc2ccc3c(O)c(NC(=O)c4ccc(O)c(CC=C(C)C)c4)c(=O)oc3c2C)OC1(C)C = yes
• COc1cc2cc(C(=O)CCC(=O)O)sc2cc1OC + COC1C(OC(N)=O)C(O)C(Oc2ccc3c(O)c(NC(=O)c4ccc(O)c(CC=C(C)C)c4)c(=O)oc3c2C)OC1(C)C = no
• O=C(Nc1ccc(O)c(NS(=O)(=O)c2ccc(F)cc2)c1)c1ccc(-c2ccccc2)cc1 + Nc1ccc(C#CCN(C(=O)Cc2ncc(C(F)(F)F)cc2C(F)(F)F)c2ccc(F)cc2)nn1 = yes
• CNCc1ccc(-c2[nH]c3cc(F)cc4c3c2CCNC4=O)cc1 + COC1C(OC(N)=O)C(O)C(Oc2ccc3c(O)c(NC(=O)c4ccc(O)c(CC=C(C)C)c4)c(=O)oc3c2C)OC1(C)C = no
• CCc1cc2c(N3CCc4c(cc(Cn5ccnc5)cc4-c4cn(C)nc4C(F)(F)F)C3=O)cc(C)nc2c(OC)n1 + COC1C(OC(N)=O)C(O)C(Oc2ccc3c(O)c(NC(=O)c4ccc(O)c(CC=C(C)C)c4)c(=O)oc3c2C)OC1(C)C = no
• O=C(Nc1ccc(O)c(NS(=O)(=O)c2ccc(F)cc2)c1)c1ccc(-c2ccccc2)cc1 + Cc1cccc(N(C)C(=O)C2C(O)CCN2c2nc(C)cc(C(F)(F)F)c2C#N)c1 = no
• COc1cccc2c1C(=O)c1c(O)c3c(c(O)c1C2=O)CC(O)(C(=O)CO)CC3OC1CC(N)C(O)C(C)O1 (stereo unspecified) + Cc1cccc(N(C)C(=O)C2C(O)CCN2c2nc(C)cc(C(F)(F)F)c2C#N)c1 = yes
• O=C(c1cc(Cc2n[nH]c(=O)c3ccccc23)ccc1F)N1CCN(C(=O)C2CC2)CC1 + Nc1ccc(C#CCN(C(=O)Cc2ncc(C(F)(F)F)cc2C(F)(F)F)c2ccc(F)cc2)nn1 = no
• Nc1ccn(C2OC(CO)C(O)C2(F)F)c(=O)n1 (stereo unspecified) + Nc1ccc(C#CCN(C(=O)Cc2ncc(C(F)(F)F)cc2C(F)(F)F)c2ccc(F)cc2)nn1 = yes
• C=CCn1c(=O)c2cnc(Nc3ccc(N4CCN(C)CC4)cc3)nc2n1-c1cccc(C(C)(C)O)n1 + Nc1ccc(C#CCN(C(=O)Cc2ncc(C(F)(F)F)cc2C(F)(F)F)c2ccc(F)cc2)nn1 = yes
• CC1COCCN1c1cc(-c2ccnn2C)c2ccnc(-c3ccn[nH]3)c2n1 (stereo unspecified) + Nc1ccc(C#CCN(C(=O)Cc2ncc(C(F)(F)F)cc2C(F)(F)F)c2ccc(F)cc2)nn1 = yes
• COc1cc2cc(C(=O)CCC(=O)O)sc2cc1OC + Nc1ccc(C#CCN(C(=O)Cc2ncc(C(F)(F)F)cc2C(F)(F)F)c2ccc(F)cc2)nn1 = yes
